These measurements were taken from the NIST ThermoML archive (doi:10.1021/acs.jced.6b00178).

Assay: xn = mol fraction of the nth substance listed
Conditions: 308.15 K; 100 kPa; Liquid; Vibrating tube method; x2 = 0.25
READOUT NAME: mass density (kg/m3)

COMPOUND	READOUT NAME	NUMBER
CCCCn1cc[n+](C)c1.F[P-](F)(F)(F)(F)F [1-butyl-3-methylimidazolium hexafluorophosphate] + CCCC[n+]1ccn(C)c1.O=S(=O)([N-]S(=O)(=O)C(F)(F)F)C(F)(F)F	mass density	1380.7
CCCCn1cc[n+](C)c1.COP(=O)([O-])OC [1-butyl-3-methyl-1H-imidazolium dimethylphosphate] + CCCC[n+]1ccn(C)c1.O=S(=O)([N-]S(=O)(=O)C(F)(F)F)C(F)(F)F	mass density	1231.4
CC(=O)[O-].CCCCn1cc[n+](C)c1 [1-butyl-3-methylimidazolium acetate] + CCCC[n+]1ccn(C)c1.O=S(=O)([N-]S(=O)(=O)C(F)(F)F)C(F)(F)F	mass density	1174.7
CCCCn1cc[n+](C)c1.N#C[S-] [1-butyl-3-methylimidazolium thiocyanate] + CCCC[n+]1ccn(C)c1.O=S(=O)([N-]S(=O)(=O)C(F)(F)F)C(F)(F)F	mass density	1188.3
CCCCn1cc[n+](C)c1.O=S(=O)([O-])C(F)(F)F [1-butyl-3-methylimidazolium trifluoromethanesulfonate] + CCCC[n+]1ccn(C)c1.O=S(=O)([N-]S(=O)(=O)C(F)(F)F)C(F)(F)F	mass density	1331.3

---

// reported viscosity per item
Details: 313.15 K; 100 kPa; Liquid; Concentric cylinders viscometry
± gives the expanded uncertainty stated by the source.
READOUT NAME: viscosity

> print(dat)
                                   compound  readout.name              result
1  CCCCn1cc[n+](C)c1.COP(=O)([O-])OC [1-butyl-3-methyl-1H-imidazolium dimethylphosphate]     viscosity    232.1 ± 13 mPa·s
2  CCCCn1cc[n+](C)c1.N#C[S-] [1-butyl-3-methylimidazolium thiocyanate]     viscosity   34.08 ± 1.7 mPa·s
3  CCCCn1cc[n+](C)c1.N#CN=C=[N-] [1-butyl-3-methylimidazolium dicyanamide]     viscosity  17.86 ± 0.91 mPa·s
4  CC(=O)[O-].CCCCn1cc[n+](C)c1 [1-butyl-3-methylimidazolium acetate]     viscosity  110.79 ± 5.8 mPa·s
5  CCCCn1cc[n+](C)c1.F[B-](F)(F)F [1-butyl-3-methylimidazolium tetrafluoroborate]     viscosity   53.37 ± 2.7 mPa·s

---

Measured mass density accompanies every entry in the list below.
Settings: 358.15 K; 100 kPa; Liquid; Vibrating tube method
± gives the expanded uncertainty stated by the source.
READOUT NAME: mass density

> print(dat)
                                   compound  readout.name              result
1  CCCCn1cc[n+](C)c1.N#CN=C=[N-] [1-butyl-3-methylimidazolium dicyanamide]  mass density    1023.2 ± 1 kg/m3
2  CCCCn1cc[n+](C)c1.COP(=O)([O-])OC [1-butyl-3-methyl-1H-imidazolium dimethylphosphate]  mass density  1118.9 ± 1.1 kg/m3
3  CC(=O)[O-].CCCCn1cc[n+](C)c1 [1-butyl-3-methylimidazolium acetate]  mass density  1016.7 ± 0.9 kg/m3
4  CCCCn1cc[n+](C)c1.F[B-](F)(F)F [1-butyl-3-methylimidazolium tetrafluoroborate]  mass density  1160.1 ± 0.6 kg/m3
5  CCCCn1cc[n+](C)c1.N#C[S-] [1-butyl-3-methylimidazolium thiocyanate]  mass density    1035.8 ± 1 kg/m3
